Where do these numbers come from? They come from ChEMBL document CHEMBL1158477.

method: Displacement of [3H]flumazenil from GABAA/Benzodiazepine receptor in bovine brain
Parameters: species or system Bos taurus
I'd appreciate it if you could supply log10 of Ki values for the items below.
Values are log10 of Ki in nM.

// known answers, use as guide
compound | log10 of Ki
Ic1cnn2c1nnc1ccc(OCc3ccccc3)cc12 | 0.00
CCOC(=O)c1cnn2c1n[n+]([O-])c1ccc(Oc3ccccc3)cc12 | 1.08
COc1ccccc1COC(=O)c1ccc2c(c1)n1ncc(C(F)(F)F)c1n[n+]2[O-] | 0.76

For each of the compounds below, state log10 of Ki.
1. [O-][n+]1nc2c(I)cnn2c2cc(OCCc3ccccc3)ccc21
2. [O-][n+]1nc2c(I)cnn2c2cc(OCc3ccco3)ccc21
3. [O-][n+]1nc2c(I)cnn2c2cc(OCc3cccs3)ccc21

stdout:
[1.63, -0.10, 0.08]

###

method: Displacement of [3H]flumazenil from GABAA/Benzodiazepine receptor in bovine brain
Parameters: species or system Bos taurus
I'd appreciate it if you could supply Ki values for the items below.

// known answers, use as guide
compound | Ki
CC(Oc1ccc2c(c1)n1ncc(I)c1n[n+]2[O-])c1ccccc1 (stereo in doubt; (+)-16) | 0.605 µM
COc1ccccc1COC(=O)c1cnn2c1n[n+]([O-])c1ccc(Oc3ccccc3)cc12 | 0.00175 µM
Cc1ccc2c(c1)n1ncc(C(=O)OCc3cccs3)c1n[n+]2[O-] | 0.00141 µM
CCOc1ccc2c(c1)n1ncc(C(=O)OCc3cccs3)c1n[n+]2[O-] | 0.00085 µM
CCOc1cnn2c1n[n+]([O-])c1ccc(C(=O)OCc3ccccc3OC)cc12 | 0.00031 µM
CC(Cc1ccccc1)Oc1ccc2c(c1)n1ncc(I)c1n[n+]2[O-] (racemic) | 0.103 µM

For each of the compounds below, state Ki.
1. COc1ccc(COc2ccc3c(c2)n2ncc(I)c2n[n+]3[O-])cc1
2. [O-][n+]1nc2c(I)cnn2c2cc(Oc3ccc4ccccc4c3)ccc21
3. [O-][n+]1nc2c(-c3ccsc3)cnn2c2cc(Oc3ccccc3)ccc21
4. [O-][n+]1nc2c(I)cnn2c2cc(OC3CCCCC3)ccc21
5. [O-][n+]1nc2c(Br)cnn2c2cc(-c3ccccc3)ccc21

stdout:
1. 0.0045 µM
2. 0.094 µM
3. 0.068 µM
4. 0.188 µM
5. 0.802 µM

For each of the compounds below, state Ki.
1. CC(COc1ccc2c(c1)n1ncc(I)c1n[n+]2[O-])c1ccccc1 (racemic)
2. [O-][n+]1nc2ccnn2c2cc(OCc3ccccc3)ccc21
3. [O-][n+]1nc2c(I)cnn2c2cc(CCc3ccccc3)ccc21
4. [O-][n+]1nc2c(I)cnn2c2cc(OCc3ccncc3)ccc21
5. [O-][n+]1nc2c(I)cnn2c2cc(OCc3ccccc3)ccc21

stdout:
1: 0.16 µM; 2: 0.116 µM; 3: 0.464 µM; 4: 0.0013 µM; 5: 0.0011 µM
